Data provenance is patent US20080145431A1.

experiment: Saturation solubility in water; type: physicochemical; details: water; process liquid temperature of 17° C.
Quantity Name: solubility

Look at this molecule and give its reported solubility. NS(=O)(=O)c1ccc(S(=O)(=O)Nc2cccc3c(Cl)c[nH]c23)cc1 [Drug A] ≤ 100 µg/mL
